Here the recorded Kb is given for each entry.
Assay Target: glucagon receptor (Homo sapiens)
Sequence (P47871 26-477): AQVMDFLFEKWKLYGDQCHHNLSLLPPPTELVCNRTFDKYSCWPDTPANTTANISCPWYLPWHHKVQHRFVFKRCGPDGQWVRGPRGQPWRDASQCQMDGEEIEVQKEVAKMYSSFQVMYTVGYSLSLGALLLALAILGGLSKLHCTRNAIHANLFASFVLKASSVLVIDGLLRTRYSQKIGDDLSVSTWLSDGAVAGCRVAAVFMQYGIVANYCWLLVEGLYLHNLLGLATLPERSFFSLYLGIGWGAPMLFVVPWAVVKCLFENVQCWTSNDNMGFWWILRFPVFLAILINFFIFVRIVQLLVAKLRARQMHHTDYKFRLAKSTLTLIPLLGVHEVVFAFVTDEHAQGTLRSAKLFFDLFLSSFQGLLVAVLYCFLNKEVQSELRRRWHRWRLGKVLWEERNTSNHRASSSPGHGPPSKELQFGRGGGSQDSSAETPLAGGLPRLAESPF
Protocol: cell-based
Ends that are not written are not given here.
Write the number in nM without appending the unit.

substance="FTSEYSKYLDSRRAQDFVQWLMNT-NH2 [[Glu^9]Glucagon(aa6-29)-NH2]" observed_value=69.2
substance="GTFTSEYSKYLDSRRAQDFVQWLMNT-NH2 [[Glu^9]Glucagon(aa4-29)-NH2]" observed_value=89.1
substance="FTSDYSKYLDSRRAQDFVQWLMNT-NH2 [Glucagon(aa6-29)-NH2]" observed_value=115

Query substance follows.
// Kb lookup, substance = H-FTSKYSKYLDSRRAQDFVQWLMNT-NH2 [[Lys^9]Glucagon(aa6-29)-NH2] , result: 263
